Documented log10 of half-life across a set of compounds
Experiment: Metabolic stability in monkey liver microsomes assessed as half life measured upto 120 mins
Format: ADME, Microsome
Conditions: macaca
On a log10 scale: recorded half-life, unit min.

These solved cases illustrate the format of a correct answer.
{"CHEMICAL_STRUCTURE": "[2H]C([2H])([2H])c1nnn(C)c1-c1cc2c(cc1F)c1ncc(C(C)(C)O)cc1n2[C@H](c1ncccc1F)C1CCOCC1", "log10 of half-life": 1.32}
{"CHEMICAL_STRUCTURE": "Cc1nnn(C)c1-c1cc2c(cc1F)c1ncc(C(C)(C)O)cc1n2[C@H](c1ccccc1)C1CCOCC1", "log10 of half-life": 0.95}
{"CHEMICAL_STRUCTURE": "[2H]C([2H])([2H])c1nnn(C)c1-c1cc2c(cn1)c1ncc(C(C)(C)O)cc1n2[C@H](c1ccccc1)C1CCOCC1", "log10 of half-life": 1.96}
{"CHEMICAL_STRUCTURE": "[2H]C([2H])([2H])c1nnn(C)c1-c1cc2c(cc1F)c1ncc(C(C)(C)O)cc1n2[C@@H](CCC)c1ncccc1F", "log10 of half-life": 1.56}

QUERY: Please report the recorded log10 of half-life for [2H]C([2H])([2H])c1nnn(C)c1-c1cc2c(cc1F)c1ncc(C(C)(C)O)cc1n2[C@H](c1cc(C)on1)C1CCOCC1 .
RESULT: 1.08

QUERY: Please report the recorded log10 of half-life for Cc1nnn(C)c1-c1cc(F)c2c3ncc(C(C)(C)O)cc3n([C@H](c3ccccc3)C3CCOCC3)c2c1 .
RESULT: 0.70

----------
Experiment: Metabolic stability in dog liver microsomes assessed as half life measured upto 120 mins
Type: ADME, Canis lupus familiaris, Microsome
Documented half-life across a set of compounds
Kindly provide the numeric value in min only, without the unit symbol.

These solved cases illustrate the format of a correct answer.
{"CHEMICAL_STRUCTURE": "[2H]C([2H])([2H])c1nnn(C)c1-c1cc2c(cc1F)c1ncc(C(C)(C)O)cc1n2[C@@H](CCC)c1ncccc1F", "REPORTED_PROPERTY": "half-life", "OBS_VALUE": 14}
{"CHEMICAL_STRUCTURE": "[2H]C([2H])([2H])c1nnn(C)c1-c1cc2c(cc1F)c1ncc(C(C)(C)O)cc1n2[C@H](c1ccccc1)C1CCOCC1", "REPORTED_PROPERTY": "half-life", "OBS_VALUE": 46}
{"CHEMICAL_STRUCTURE": "Cc1nnn(C)c1-c1cc2c(cc1F)c1ncc(C(C)(C)O)cc1n2[C@H](c1ccccc1)C1CCOCC1", "REPORTED_PROPERTY": "half-life", "OBS_VALUE": 22}
{"CHEMICAL_STRUCTURE": "Cc1nnn(C)c1-c1cc(F)c2c3ncc(C(C)(C)O)cc3n([C@H](c3ccccc3)C3CCOCC3)c2c1", "REPORTED_PROPERTY": "half-life", "OBS_VALUE": 29}
{"CHEMICAL_STRUCTURE": "[2H]C([2H])([2H])c1nnn(C)c1-c1cc2c(cc1F)c1ncc(C(C)(C)O)cc1n2[C@H](c1cc(C)on1)C1CCOCC1", "REPORTED_PROPERTY": "half-life", "OBS_VALUE": 53}

QUERY: Please report the recorded half-life for [2H]C([2H])([2H])c1nnn(C)c1-c1cc2c(cc1F)c1ncc(C(C)(C)O)cc1n2[C@H](c1ncccc1F)C1CCOCC1 .
RESULT: 22

QUERY: Please report the recorded half-life for [2H]C([2H])([2H])c1nnn(C)c1-c1cc2c(cn1)c1ncc(C(C)(C)O)cc1n2[C@H](c1ccccc1)C1CCOCC1 .
RESULT: 120

QUERY: Please report the recorded half-life for Cc1nnn(C)c1-c1cnc2c3ccc(C(C)(C)O)cc3n([C@H](c3ccccc3)C3CCOCC3)c2c1 .
RESULT: 20

QUERY: Please report the recorded half-life for Cc1nnn(C)c1-c1ccc2c3ncc(C(C)(C)O)cc3n([C@H](c3ccccc3)C3CCOCC3)c2c1 .
RESULT: 15

----------
Assay: Metabolic stability in human liver microsomes assessed as half life measured upto 120 mins
Format: ADME, Microsome
REPORTED_PROPERTY: half-life (min)
Kindly provide the numeric value in min only, without the unit symbol.

These solved cases illustrate the format of a correct answer.
{"MOLECULE": "Cc1nnn(C)c1-c1ccc2c3ncc(C(C)(C)O)cc3n([C@H](c3ccccc3)C3CCOCC3)c2c1", "UNITS": "min", "half-life": 7}
{"MOLECULE": "[2H]C([2H])([2H])c1nnn(C)c1-c1cc2c(cc1F)c1ncc(C(C)(C)O)cc1n2[C@@H](CCC)c1ncccc1F", "UNITS": "min", "half-life": 74}
{"MOLECULE": "[2H]C([2H])([2H])c1nnn(C)c1-c1cc2c(cc1F)c1ncc(C(C)(C)O)cc1n2[C@H](c1ncccc1F)C1CCOCC1", "UNITS": "min", "half-life": 95}

QUERY: Please report the recorded half-life for Cc1nnn(C)c1-c1cnc2c3ccc(C(C)(C)O)cc3n([C@H](c3ccccc3)C3CCOCC3)c2c1 [EZOBRESIB] .
RESULT: 36

QUERY: Please report the recorded half-life for [2H]C([2H])([2H])c1nnn(C)c1-c1cc2c(cc1F)c1ncc(C(C)(C)O)cc1n2[C@H](c1ccccc1)C1CCOCC1 .
RESULT: 54

QUERY: Please report the recorded half-life for [2H]C([2H])([2H])c1nnn(C)c1-c1cc2c(cn1)c1ncc(C(C)(C)O)cc1n2[C@H](c1ccccc1)C1CCOCC1 .
RESULT: 120

QUERY: Please report the recorded half-life for Cc1nnn(C)c1-c1cc2c(cc1F)c1ncc(C(C)(C)O)cc1n2[C@H](c1ccccc1)C1CCOCC1 .
RESULT: 25

QUERY: Please report the recorded half-life for [2H]C([2H])([2H])c1nnn(C)c1-c1cc2c(cc1F)c1ncc(C(C)(C)O)cc1n2[C@H](c1cc(C)on1)C1CCOCC1 .
RESULT: 61

QUERY: Please report the recorded half-life for Cc1nnn(C)c1-c1cc(F)c2c3ncc(C(C)(C)O)cc3n([C@H](c3ccccc3)C3CCOCC3)c2c1 .
RESULT: 9

----------
Assay: AUC in mouse at 3 mg/kg, po measured after 24 hrs
Type: ADME, organism-based
Set-up: route oral, dose 3 mg/kg, time 24 hrs
Settings: in vivo
Documented AUC at 24 h across a set of compounds
Kindly provide the numeric value in µM·h only, without the unit symbol.

{"CHEMICAL_STRUCTURE": "Cc1sc2c(c1C)C(c1ccc(Cl)cc1)=N[C@@H](CC(=O)OC(C)(C)C)c1nnc(C)n1-2", "OBS_VALUE": 7.4}
{"CHEMICAL_STRUCTURE": "[2H]C([2H])([2H])c1nnn(C)c1-c1cc2c(cc1F)c1ncc(C(C)(C)O)cc1n2[C@H](c1ncccc1F)C1CCOCC1", "OBS_VALUE": 11.1}

// below: AUC at 24 h requested for another compound
QUERY: Please report the recorded AUC at 24 h for [2H]C([2H])([2H])c1nnn(C)c1-c1cc2c(cc1F)c1ncc(C(C)(C)O)cc1n2[C@H](c1ccccc1)C1CCOCC1 .
RESULT: 10

----------
Experiment: Metabolic stability in rat liver microsomes assessed as half life measured upto 120 mins
Assay type: ADME, Microsome
REPORTED_PROPERTY: half-life (min)
Kindly provide the numeric value in min only, without the unit symbol.

These solved cases illustrate the format of a correct answer.
{"CHEMICAL_STRUCTURE": "[2H]C([2H])([2H])c1nnn(C)c1-c1cc2c(cn1)c1ncc(C(C)(C)O)cc1n2[C@H](c1ccccc1)C1CCOCC1", "UNITS": "min", "OBS_VALUE": 46}
{"CHEMICAL_STRUCTURE": "[2H]C([2H])([2H])c1nnn(C)c1-c1cc2c(cc1F)c1ncc(C(C)(C)O)cc1n2[C@H](c1cc(C)on1)C1CCOCC1", "UNITS": "min", "OBS_VALUE": 1}
{"CHEMICAL_STRUCTURE": "[2H]C([2H])([2H])c1nnn(C)c1-c1cc2c(cc1F)c1ncc(C(C)(C)O)cc1n2[C@H](c1ncccc1F)C1CCOCC1", "UNITS": "min", "OBS_VALUE": 87}
{"CHEMICAL_STRUCTURE": "Cc1nnn(C)c1-c1cc2c(cc1F)c1ncc(C(C)(C)O)cc1n2[C@H](c1ccccc1)C1CCOCC1", "UNITS": "min", "OBS_VALUE": 7}
{"CHEMICAL_STRUCTURE": "[2H]C([2H])([2H])c1nnn(C)c1-c1cc2c(cc1F)c1ncc(C(C)(C)O)cc1n2[C@@H](CCC)c1ncccc1F", "UNITS": "min", "OBS_VALUE": 37}
{"CHEMICAL_STRUCTURE": "Cc1nnn(C)c1-c1cc(F)c2c3ncc(C(C)(C)O)cc3n([C@H](c3ccccc3)C3CCOCC3)c2c1", "UNITS": "min", "OBS_VALUE": 10}
{"CHEMICAL_STRUCTURE": "[2H]C([2H])([2H])c1nnn(C)c1-c1cc2c(cc1F)c1ncc(C(C)(C)O)cc1n2[C@H](c1ccccc1)C1CCOCC1", "UNITS": "min", "OBS_VALUE": 9}
{"CHEMICAL_STRUCTURE": "Cc1nnn(C)c1-c1cnc2c3ccc(C(C)(C)O)cc3n([C@H](c3ccccc3)C3CCOCC3)c2c1", "UNITS": "min", "OBS_VALUE": 40}

// below: half-life requested for another molecule
QUERY: Please report the recorded half-life for Cc1nnn(C)c1-c1ccc2c3ncc(C(C)(C)O)cc3n([C@H](c3ccccc3)C3CCOCC3)c2c1 .
RESULT: 3

Hey, just so you know, these numbers are from ChEMBL document CHEMBL5029166.
